# EXPERIMENTAL TARGET: ScFus1
# ASSAY PROCEDURE: SPOT peptide array binding signal intensity (averaged, normalized) (arbitrary units (background-subtracted, floor 0; scale differs between SH3 domains)); higher = stronger binding of the SH3 domain to the peptide
PROPERTY MEASURED: SPOT peptide array binding signal intensity
I'd appreciate a reply containing only the number, no unit.

Provide one value: measured SPOT peptide array binding signal intensity of RRSKSLPTTPGIRSG 163

Return value of SPOT peptide array binding signal intensity for input FVLRYYILIPHEQWD , no commentary. 1310

Please supply the value of reported SPOT peptide array binding signal intensity for the item RRARRQMGIPTISQV 671

Using the record for VTHRLRISIPGITGR , state its measured SPOT peptide array binding signal intensity. 1730

Assign SPOT peptide array binding signal intensity to the following record: MFLISPPASPPPEFD 7

Answer with the recorded SPOT peptide array binding signal intensity of WRPRIVPILPYITRL only. 75

// Input: RSKRLFPVRPMATAH . Output its SPOT peptide array binding signal intensity only. 255

Indicate the recorded SPOT peptide array binding signal intensity value for this binder: KDKKTKPTPPPKPSH 31

Give a short answer stating reported SPOT peptide array binding signal intensity for NLPKRKPPKLQGPFS . 162

Identify the reported SPOT peptide array binding signal intensity for the following entry. LLLLFVPDSPYDPAI 1060

Please report the measured SPOT peptide array binding signal intensity for KNRKNLPTIPIRLSG 63

Give reported SPOT peptide array binding signal intensity value for NNFYRPLLRSVLVLL 238

Give reported SPOT peptide array binding signal intensity value for ISRRRLPVIMHRLKM 516

Give the value of SPOT peptide array binding signal intensity reported for the following: IRMPSNPALPKKLLN 805

Could you please provide reported SPOT peptide array binding signal intensity for RRASLFPRDPKRLRP ? Thanks! 282

Return SPOT peptide array binding signal intensity for the following binder: KIRRSSLMIPNPQQF 68

Using the record for GLRRARYKFPGQQKI , state its measured SPOT peptide array binding signal intensity. 244

Find the measured SPOT peptide array binding signal intensity of GQYRRTIVIPRRFFT and report it. 898

Tell me SPOT peptide array binding signal intensity reported for NGRRRPKFRVQLSGN 2430

Give the reported SPOT peptide array binding signal intensity for this binder. RRRRRPHRIERPLSN 396

Answer with the recorded SPOT peptide array binding signal intensity of RRLRDKYKLPIVDAD only. 115
